molecular target: bd oxidase (cytochrome bd) (Shewanella oneidensis); construct: native cydABX complex in membrane preparations of S. oneidensis Δcco strain (cbb3 oxidase absent), not purified, no tag; with Cytochrome bd ubiquinol oxidase subunit II CydB; Cytochrome bd oxidase small subunit CydX; assay: oxygen consumption (O2 electrode), membranes of Δcco strain; conditions: ~70 μmol/L O2; ubiquinol-1 as electron donor; no added ScyA
Sequence (Q8EC58 1-518): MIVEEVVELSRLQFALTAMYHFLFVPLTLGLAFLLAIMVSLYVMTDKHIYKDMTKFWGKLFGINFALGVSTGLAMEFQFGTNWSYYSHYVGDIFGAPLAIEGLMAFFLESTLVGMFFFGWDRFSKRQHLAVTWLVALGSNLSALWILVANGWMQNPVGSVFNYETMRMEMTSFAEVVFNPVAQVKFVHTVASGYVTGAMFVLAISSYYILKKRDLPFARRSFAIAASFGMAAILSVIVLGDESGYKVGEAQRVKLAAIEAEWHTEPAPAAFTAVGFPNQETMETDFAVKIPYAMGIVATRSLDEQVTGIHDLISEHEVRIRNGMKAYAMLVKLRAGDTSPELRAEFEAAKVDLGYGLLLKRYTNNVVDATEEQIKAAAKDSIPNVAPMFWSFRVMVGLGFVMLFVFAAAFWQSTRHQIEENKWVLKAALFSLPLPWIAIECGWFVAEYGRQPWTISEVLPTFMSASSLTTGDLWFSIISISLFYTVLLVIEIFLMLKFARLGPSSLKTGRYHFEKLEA
Sequence (Q8EC59 1-379 partner): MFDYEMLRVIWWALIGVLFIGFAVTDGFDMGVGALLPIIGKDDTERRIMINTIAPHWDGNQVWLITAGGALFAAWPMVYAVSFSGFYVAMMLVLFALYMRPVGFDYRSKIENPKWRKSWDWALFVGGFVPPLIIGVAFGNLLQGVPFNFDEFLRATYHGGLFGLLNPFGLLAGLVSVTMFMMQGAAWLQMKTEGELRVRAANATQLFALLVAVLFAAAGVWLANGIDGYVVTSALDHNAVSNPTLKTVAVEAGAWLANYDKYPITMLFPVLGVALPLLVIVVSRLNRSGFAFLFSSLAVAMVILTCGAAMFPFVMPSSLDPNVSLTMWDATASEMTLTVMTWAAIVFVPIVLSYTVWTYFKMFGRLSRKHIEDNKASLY
Sequence (Q8EC60 1-38 partner): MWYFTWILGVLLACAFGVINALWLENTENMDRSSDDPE
pIC50: −log10 of the molar value.

{"COMPOUND": "O=NO [nitrite]", "pIC50": "~6.74"}

###

target: cbb3-HCO (cytochrome cbb3 oxidase) (Shewanella oneidensis); construct: gene ccoN; native ccoNOQP complex in membrane preparations of S. oneidensis Δcyd strain (bd oxidase absent), not purified, no tag; with Cbb3-type cytochrome c oxidase subunit II CcoO; Cbb3-type cytochrome c oxidase subunit III CcoP; Cbb3-type cytochrome c oxidase subunit IV CcoQ; test: oxygen consumption (O2 electrode), membranes of Δcyd strain; format: biochemical; conditions: ~70 μmol/L O2; ascorbate + TMPD as electron donor; no added ScyA
Sequence (Q8EEL5 1-478): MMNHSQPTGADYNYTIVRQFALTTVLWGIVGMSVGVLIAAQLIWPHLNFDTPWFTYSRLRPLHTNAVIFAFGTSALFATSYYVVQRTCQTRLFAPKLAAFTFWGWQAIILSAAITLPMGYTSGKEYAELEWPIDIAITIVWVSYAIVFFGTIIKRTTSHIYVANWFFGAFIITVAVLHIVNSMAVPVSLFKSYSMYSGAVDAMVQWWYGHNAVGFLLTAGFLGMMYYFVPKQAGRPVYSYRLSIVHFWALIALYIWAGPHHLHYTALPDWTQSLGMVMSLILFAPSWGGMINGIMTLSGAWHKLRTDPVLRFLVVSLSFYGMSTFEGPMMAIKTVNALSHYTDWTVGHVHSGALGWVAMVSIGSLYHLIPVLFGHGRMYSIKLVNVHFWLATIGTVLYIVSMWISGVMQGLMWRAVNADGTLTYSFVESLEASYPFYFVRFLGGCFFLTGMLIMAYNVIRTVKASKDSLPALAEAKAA
Sequence (Q8EEL6 1-208 partner): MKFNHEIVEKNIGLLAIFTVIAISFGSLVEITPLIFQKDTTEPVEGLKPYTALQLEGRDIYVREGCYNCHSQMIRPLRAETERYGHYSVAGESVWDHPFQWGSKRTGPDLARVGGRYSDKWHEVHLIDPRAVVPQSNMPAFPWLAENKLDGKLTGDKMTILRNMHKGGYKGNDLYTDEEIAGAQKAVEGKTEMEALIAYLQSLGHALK
Sequence (Q8EEL8 1-322 partner): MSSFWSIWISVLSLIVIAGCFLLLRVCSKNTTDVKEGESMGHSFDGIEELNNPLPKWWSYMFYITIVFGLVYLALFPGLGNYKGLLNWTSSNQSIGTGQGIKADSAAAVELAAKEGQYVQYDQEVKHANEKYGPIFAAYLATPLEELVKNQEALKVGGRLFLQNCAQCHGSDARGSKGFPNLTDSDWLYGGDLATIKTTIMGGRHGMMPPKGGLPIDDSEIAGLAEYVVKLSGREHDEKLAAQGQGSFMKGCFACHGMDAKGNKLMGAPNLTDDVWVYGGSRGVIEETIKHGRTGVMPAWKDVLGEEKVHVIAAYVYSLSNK
Sequence (Q8EEL7 1-58 partner): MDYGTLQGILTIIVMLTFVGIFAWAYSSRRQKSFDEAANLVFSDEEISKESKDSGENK

{"COMPOUND": "O=NO [nitrite]", "IC50": "~50 nM"}
